What follows is a collection of IC50 values obtained with MetRS (S. aureus) (Staphylococcus aureus).
Sequence (Q5HII6 whole entry): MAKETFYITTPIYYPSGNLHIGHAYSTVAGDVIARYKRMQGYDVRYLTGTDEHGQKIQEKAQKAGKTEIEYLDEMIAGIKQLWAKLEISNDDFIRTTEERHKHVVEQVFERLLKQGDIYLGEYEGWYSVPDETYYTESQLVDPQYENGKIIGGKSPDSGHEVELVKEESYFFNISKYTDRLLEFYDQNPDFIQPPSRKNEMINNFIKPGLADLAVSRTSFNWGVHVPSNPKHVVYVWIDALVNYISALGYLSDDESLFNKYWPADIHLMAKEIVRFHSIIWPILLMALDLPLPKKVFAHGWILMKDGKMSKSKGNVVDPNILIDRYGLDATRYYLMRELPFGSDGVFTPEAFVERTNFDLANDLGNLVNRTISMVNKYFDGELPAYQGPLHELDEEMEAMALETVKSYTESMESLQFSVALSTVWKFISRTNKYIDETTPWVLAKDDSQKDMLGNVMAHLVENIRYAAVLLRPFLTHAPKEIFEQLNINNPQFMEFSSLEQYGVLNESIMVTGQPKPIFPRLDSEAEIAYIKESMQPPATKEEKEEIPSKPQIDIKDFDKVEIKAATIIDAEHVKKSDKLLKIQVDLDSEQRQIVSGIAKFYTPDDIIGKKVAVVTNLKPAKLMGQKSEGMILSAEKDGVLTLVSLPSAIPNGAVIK

# COMPOUND, IC50
records = [
    ("O=c1[nH]c(Cc2ccc(Cl)cc2Cl)cn1Cc1nc2ccc(F)nc2[nH]1 [Compound 1962]", "17 nM"),
    ("CN(CCN(Cc1cc(Cl)cc(Cl)c1)C(=O)CO)c1nc2ccc(Cl)nc2[nH]1 [Compound 1971]", "85 nM"),
    ("CC(=O)N(CCN(C)c1nc2ccc(Cl)nc2[nH]1)Cc1cc(Cl)cc(Cl)c1 [Compound 1926]", "172 nM"),
    ("O=C(Cc1cc(Cl)cc(Cl)c1)N1CCCC(c2nc3nc(F)ccc3[nH]2)C1 (stereo not shown) [Compound 1761]", "1910 nM"),
]
